Target: FLNCd18–21 (Homo sapiens, UniProt Q14315)
Construct: WT, residues 1943 to 2408 from UniProt ID Q14315; 6xHis (C); EEF (C); made in house; host or cells: E. coli BL21(DE3) pLysS
Sequence (Q14315 1943-2408): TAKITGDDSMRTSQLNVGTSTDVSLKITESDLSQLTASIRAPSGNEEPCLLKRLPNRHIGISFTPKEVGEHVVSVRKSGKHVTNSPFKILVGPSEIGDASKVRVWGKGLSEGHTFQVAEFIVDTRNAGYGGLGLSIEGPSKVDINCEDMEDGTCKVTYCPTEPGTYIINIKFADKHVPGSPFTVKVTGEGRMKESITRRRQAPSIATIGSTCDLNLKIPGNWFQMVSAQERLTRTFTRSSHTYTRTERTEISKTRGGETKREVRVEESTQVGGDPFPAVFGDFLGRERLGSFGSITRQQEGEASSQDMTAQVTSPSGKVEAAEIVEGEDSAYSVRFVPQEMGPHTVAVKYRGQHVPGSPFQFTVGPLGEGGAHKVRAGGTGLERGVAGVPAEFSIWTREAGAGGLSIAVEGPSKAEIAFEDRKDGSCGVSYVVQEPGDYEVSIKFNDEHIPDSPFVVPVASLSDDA
Assay: native MS peptide titration / complex detection with FLNCd18–21
Format: binding
Conditions: native MS titration, 5 μM FLNCd18–21, 5 to 160 μM peptide, 200 mM ammonium acetate pH 6.9, minimum three technical repeats, model of three equivalent binding sites, 500 bootstraps; apparent KD; read-out: dissociation constant KD (apparent)
pKd: −log10 of the molar value. No end group written: not given here.

[
  {
    "Input Sequence": "QLSSGVSEI [HspB1_80–88]",
    "pKd": "< 4.00"
  }
]
